target: PARM, pseudo-wild type (human Mint2 364-570, Y524W) (human, UniProt Q99767 364-570, Y524W); assay: fluorescence polarisation; conditions: both partners purified
Sequence (Q99767 364-570 Y524W): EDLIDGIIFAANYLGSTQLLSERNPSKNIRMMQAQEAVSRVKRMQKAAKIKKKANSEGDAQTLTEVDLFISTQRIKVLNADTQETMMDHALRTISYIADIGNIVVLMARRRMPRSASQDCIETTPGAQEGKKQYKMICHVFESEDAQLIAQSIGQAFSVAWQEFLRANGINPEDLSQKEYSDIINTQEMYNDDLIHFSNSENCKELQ
property: Ki (µM)
One number for each entry, in µM.

Q: Bench note: what Ki did NGYENPTYKFFE [APP^WT 12-mer (NGYENPTYKFFE), unlabelled] show?
A: 3.5
